B1: Pistol ribozyme (parent)
chain: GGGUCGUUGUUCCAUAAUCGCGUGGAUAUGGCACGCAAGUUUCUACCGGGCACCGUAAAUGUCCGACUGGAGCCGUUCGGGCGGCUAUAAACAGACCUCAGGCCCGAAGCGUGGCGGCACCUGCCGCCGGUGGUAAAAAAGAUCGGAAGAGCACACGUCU

Variants of: B1
experimentNotes: aptazyme ON/OFF ratio, guanine; higher = stronger switching; co-transcriptional cleavage with and without guanine
parameterMeasured: aptazyme ON/OFF ratio
A bare number is all that is needed in reply.

Study these solved cases before continuing.
GET /value?item= U7C U8C U10C C12A C13A &field=aptazyme ON/OFF ratio returns 1.6

GET /value?item= U7G U8A U10G U11C &field=aptazyme ON/OFF ratio returns 2.11

GET /value?item= U8G U11C C12U C13A &field=aptazyme ON/OFF ratio returns 1.33

GET /value?item= U7C U8G G9U U10C U11G C13G &field=aptazyme ON/OFF ratio returns 1.03

Others:
GET /value?item= U7A U10A U11A &field=aptazyme ON/OFF ratio returns 1.21

GET /value?item= U7C U8G G9C U10G U11C C12G &field=aptazyme ON/OFF ratio returns 1.25

GET /value?item= U7A U8A G9C U10A U11G C12G C13U &field=aptazyme ON/OFF ratio returns 1.14

GET /value?item= U8C G9U U10C U11C C12G C13G &field=aptazyme ON/OFF ratio returns 1.15

GET /value?item= U7C C12U C13G &field=aptazyme ON/OFF ratio returns 1.28

GET /value?item= U7A U8C G9A U11A C12A &field=aptazyme ON/OFF ratio returns 1.43

GET /value?item= U8C U10C U11A C12G C13U &field=aptazyme ON/OFF ratio returns 1.24

GET /value?item= U7G U10A U11C C12A &field=aptazyme ON/OFF ratio returns 1.16

GET /value?item= U7A U8G G9C U10G U11A C12U C13G &field=aptazyme ON/OFF ratio returns 1.23

GET /value?item= U7G U8G U10A U11C C13G &field=aptazyme ON/OFF ratio returns 1.25

GET /value?item= U7A U8G G9U U10A C12A C13G &field=aptazyme ON/OFF ratio returns 1.28

GET /value?item= U7A U8G G9A U10C U11G C12A C13G &field=aptazyme ON/OFF ratio returns 1.19

GET /value?item= U8C G9U U11C C12A C13U &field=aptazyme ON/OFF ratio returns 1.18

GET /value?item= U7A U8C G9C U11C C12A C13U &field=aptazyme ON/OFF ratio returns 1.04

GET /value?item= U7A U8G G9U U10G U11A C12G C13G &field=aptazyme ON/OFF ratio returns 1.38

GET /value?item= U7C U8A G9C U10C U11C C12G &field=aptazyme ON/OFF ratio returns 1.04
